Each entry below carries its reported inhibition.
# TARGET DESC: 1-phosphatidylinositol 4,5-bisphosphate phosphodiesterase gamma-2 (Homo sapiens)
# Sequence (whole entry): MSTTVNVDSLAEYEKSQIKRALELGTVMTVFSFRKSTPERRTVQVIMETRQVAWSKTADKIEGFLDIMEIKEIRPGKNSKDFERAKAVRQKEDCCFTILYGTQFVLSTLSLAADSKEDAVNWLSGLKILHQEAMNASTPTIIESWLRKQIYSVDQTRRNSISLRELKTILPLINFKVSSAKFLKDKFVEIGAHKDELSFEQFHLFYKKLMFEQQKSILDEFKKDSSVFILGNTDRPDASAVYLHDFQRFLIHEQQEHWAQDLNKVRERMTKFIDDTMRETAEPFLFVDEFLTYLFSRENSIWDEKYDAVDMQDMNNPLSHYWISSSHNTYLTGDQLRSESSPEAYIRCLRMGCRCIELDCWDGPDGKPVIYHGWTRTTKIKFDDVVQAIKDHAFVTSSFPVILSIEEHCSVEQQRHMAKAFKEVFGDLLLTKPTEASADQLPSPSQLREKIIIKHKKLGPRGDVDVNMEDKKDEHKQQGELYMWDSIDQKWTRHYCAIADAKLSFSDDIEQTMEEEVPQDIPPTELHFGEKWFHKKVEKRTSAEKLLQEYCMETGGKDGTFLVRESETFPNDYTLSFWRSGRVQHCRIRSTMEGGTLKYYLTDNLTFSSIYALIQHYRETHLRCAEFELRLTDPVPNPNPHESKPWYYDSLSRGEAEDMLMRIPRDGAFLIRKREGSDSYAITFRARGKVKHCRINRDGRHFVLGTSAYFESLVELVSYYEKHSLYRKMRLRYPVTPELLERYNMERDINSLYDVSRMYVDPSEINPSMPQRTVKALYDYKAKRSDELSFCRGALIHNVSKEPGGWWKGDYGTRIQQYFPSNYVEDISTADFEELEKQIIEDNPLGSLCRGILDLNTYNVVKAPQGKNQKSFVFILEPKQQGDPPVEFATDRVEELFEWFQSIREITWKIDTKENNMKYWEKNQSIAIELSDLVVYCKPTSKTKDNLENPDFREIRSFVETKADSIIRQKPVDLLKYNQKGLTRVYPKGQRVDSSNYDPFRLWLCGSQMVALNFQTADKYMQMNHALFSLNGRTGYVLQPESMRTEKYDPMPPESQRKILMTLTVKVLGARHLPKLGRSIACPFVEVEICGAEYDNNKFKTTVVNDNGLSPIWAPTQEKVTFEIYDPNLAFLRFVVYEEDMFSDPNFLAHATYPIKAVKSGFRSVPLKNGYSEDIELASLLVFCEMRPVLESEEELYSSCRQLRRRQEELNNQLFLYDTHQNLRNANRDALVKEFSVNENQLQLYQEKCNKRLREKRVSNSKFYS
# MEASUREMENT DESCRIPTION: Inhibition of recombinant phospholipase C gamma2 expressed in baculovirus infected Sf9 cells at 50 uM using [3H]PIP2 by flashplate biochemical assay
RECORDED METRIC: inhibition (%)

>>> df
                                    compound  units_symbol  observed_measurement
 0  Cc1ccc(/C=C2\C(=O)NC(=O)N(c3ccc(Cl)cc3)C2=O)s1             %                     6
 1  Nc1c(C(=O)Nc2cccc(F)c2)sc2nc(-c3ccc(F)cc3)ccc12             %                   100
 2  Cc1ccc2c(c1)N/C(=C\C(=O)c1ccc(Cl)cc1)C(=O)O2             %                   100
 3  COc1ccc2c(c1)C1N=CN(CCc3c[nH]c4ccccc34)C(=O)C1N2 (stereo not drawn)             %                    89
 4       COc1ccc(-c2nnc(NC(=O)c3cccs3)s2)cc1             %                   100
 5  O=c1/c(=C/c2ccccc2[N+](=O)[O-])sc2nc(-c3ccc(F)cc3)nn12             %                   100
 6          O=C(Nc1ccccc1)Nc1nnc(-c2cccs2)s1             %                   100
 7  O=C(Nc1ccc2oc(=O)ccc2c1)c1ccc(-c2cccc(Cl)c2)o1             %                   100
 8  Cc1ccc(S(=O)(=O)NC2=NC(=O)/C(=C\c3ccccc3)S2)cc1             %                    82
 9  O=C1C2Nc3ccc(Br)cc3C2N=CN1CCc1ccc(F)cc1 (stereo not drawn)             %                   100
10  CCOc1ccc2c(c1)C1N=CN(Cc3ccccc3)C(=O)C1N2 (stereo not drawn)             %                    89
11  Nc1c(C(=O)Nc2cccc(Cl)c2)sc2nc(-c3cccs3)ccc12             %                   100
12  O=S(=O)(Oc1ccc(-c2cnc3ccccc3n2)cc1)c1ccccc1             %                   100
13     CCCOc1ccc(-c2nnc(NC(=O)c3cccs3)s2)cc1             %                    67
14  COc1ccc(Cl)cc1C(=O)Nc1nc2ccc([N+](=O)[O-])cc2s1             %                   100
15  Cc1ccc(NC(=O)c2sc3nc4c(cc3c2N)C(=O)CCC4)cc1             %                   100
16  CCCc1nnc(NC(=O)c2cc([N+](=O)[O-])cc([N+](=O)[O-])c2)s1             %                   100
17  O=C1C2Nc3ccc(Br)cc3C2N=CN1CCc1ccccc1 (stereo not drawn)             %                   100
18  Nc1c(C(=O)Nc2cccc(Cl)c2)sc2nc3c(cc12)C(=O)CCC3             %                   100
19  O=c1/c(=C/c2ccncc2)sc2n1CN(c1ccc(Cl)cc1)CN=2             %                   100
20  O=C1C2Nc3ccc(Br)cc3C2N=CN1CCC1=CCCCC1 (stereo not drawn)             %                   100
21       CC(=O)c1ccc(Nc2nnc(-c3ccncc3)s2)cc1             %                   100
22  O=C(Nc1ccc(S(=O)(=O)Nc2nccs2)cc1)c1cccs1             %                    82

###

# TARGET DESC: 1-phosphatidylinositol 4,5-bisphosphate phosphodiesterase gamma-2 (Homo sapiens) (UniProt P16885)
# MEASUREMENT DESCRIPTION: Inhibition of recombinant phospholipase C gamma2 expressed in baculovirus infected Sf9 cells at 50 uM using [3H]PIP2 by flashplate biochemical assay
RECORDED METRIC: inhibition

>>> df
                           structure_string  recorded_metric  observed_measurement
0  O=C1NN(c2ccccc2)C(=O)/C1=C/c1coc2ccc(Cl)cc2c1=O       inhibition                   27%
1  Cc1ccc(NC(=O)c2sc3nc4c(cc3c2N)C(=O)CCC4)cc1Cl       inhibition                  100%
2  O=C(Nc1cccc(Cl)c1)Nc1nnc(-c2ccc3c(c2)OCO3)s1       inhibition                   85%

###

# reported pIC50; entries follow
# TARGET DESC: 1-phosphatidylinositol 4,5-bisphosphate phosphodiesterase gamma-2 (Homo sapiens)
# Sequence (P16885 whole entry): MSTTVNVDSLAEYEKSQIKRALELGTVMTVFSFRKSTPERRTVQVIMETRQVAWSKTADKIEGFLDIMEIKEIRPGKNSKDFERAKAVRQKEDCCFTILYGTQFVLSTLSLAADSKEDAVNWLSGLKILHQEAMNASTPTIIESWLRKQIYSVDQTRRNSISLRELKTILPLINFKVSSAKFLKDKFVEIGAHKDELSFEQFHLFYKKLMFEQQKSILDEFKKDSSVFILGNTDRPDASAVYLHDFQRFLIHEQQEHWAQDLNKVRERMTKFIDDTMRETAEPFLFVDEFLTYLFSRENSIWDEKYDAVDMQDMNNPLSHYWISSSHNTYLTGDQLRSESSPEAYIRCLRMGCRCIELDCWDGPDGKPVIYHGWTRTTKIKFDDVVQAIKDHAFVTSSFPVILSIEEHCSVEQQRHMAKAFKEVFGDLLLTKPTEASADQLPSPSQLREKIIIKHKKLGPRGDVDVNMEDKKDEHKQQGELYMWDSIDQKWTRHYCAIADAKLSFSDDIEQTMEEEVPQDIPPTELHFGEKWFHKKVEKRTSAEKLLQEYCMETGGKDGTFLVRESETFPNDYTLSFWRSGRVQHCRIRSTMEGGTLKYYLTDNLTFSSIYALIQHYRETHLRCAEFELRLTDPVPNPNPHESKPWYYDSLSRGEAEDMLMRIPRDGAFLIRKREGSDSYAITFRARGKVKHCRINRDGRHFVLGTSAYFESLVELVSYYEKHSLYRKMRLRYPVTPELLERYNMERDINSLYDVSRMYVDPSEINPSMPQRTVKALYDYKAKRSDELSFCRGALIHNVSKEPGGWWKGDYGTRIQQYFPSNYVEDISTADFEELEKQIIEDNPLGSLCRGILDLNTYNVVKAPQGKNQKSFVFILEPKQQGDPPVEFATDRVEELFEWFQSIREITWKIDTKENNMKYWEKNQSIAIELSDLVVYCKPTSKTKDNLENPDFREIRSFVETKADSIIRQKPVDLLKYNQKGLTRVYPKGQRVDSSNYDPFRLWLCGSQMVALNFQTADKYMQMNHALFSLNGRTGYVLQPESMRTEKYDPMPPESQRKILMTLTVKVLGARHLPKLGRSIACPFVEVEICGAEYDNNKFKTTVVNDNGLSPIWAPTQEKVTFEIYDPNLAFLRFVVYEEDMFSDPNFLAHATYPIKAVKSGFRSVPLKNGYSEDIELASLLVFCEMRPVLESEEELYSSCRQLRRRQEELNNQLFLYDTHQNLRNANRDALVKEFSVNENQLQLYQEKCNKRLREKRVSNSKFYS
# MEASUREMENT DESCRIPTION: Inhibition of recombinant phospholipase C gamma2 expressed in baculovirus infected Sf9 cells using [3H]PIP2 by flashplate biochemical assay
pIC50: −log10 of the molar value.
RECORDED METRIC: pIC50

>>> print(df.to_string())
                           structure_string  observed_measurement
0  O=C1OC(c2ccc([N+](=O)[O-])cc2)=N/C1=C/c1cccs1                  4.92
1  Clc1cccc(-c2nc(-c3ccc(-c4ccon4)s3)no2)c1                  6.00
2   COc1ccc2[nH]c(C(=O)Nc3nc4ccccc4s3)cc2c1                  5.30
3     N#Cc1ccc(/C=C2/N=C(c3ccccc3)OC2=O)cc1                  5.70
4     COc1ccc(-c2cc3nnc(-c4ccccc4)nc3s2)cc1                  5.40
